testedSystem: T1, soluble gp34 ectodomain W65F, V5-His tagged (sgp34mtrp-V5-His) (HCMV strain AD169)
T1 construct: signal peptide 1-23 left out; V5 and His tags are in the entry; Forms only monomers and dimers; also called sol gp34mtrp; gp34 1-179 W65F
T1 chain: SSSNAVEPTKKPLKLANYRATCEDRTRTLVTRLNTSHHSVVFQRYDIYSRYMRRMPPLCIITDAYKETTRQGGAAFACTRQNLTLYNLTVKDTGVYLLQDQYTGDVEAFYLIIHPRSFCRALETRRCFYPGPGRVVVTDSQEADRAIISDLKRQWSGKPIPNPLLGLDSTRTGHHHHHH
methodNotes: ELISA mtrp
parameter: binding result

# annotated cases, reported binding result shown
gp34wt.08 (antibody, V domains shown, mouse IgG1 hybridoma mAb; leader in entries; also called anti gp34 clone wt.08) VH: EVQLEQSGPELVKTGASVKISCKASGYSFTSYQIYWVKQSHGKSLEWIGHISCYNGATSYNQKFKDKATFTVDTSSSTAYMQFNSLTSEDSAVYFCARYDYAPDYYAMDYWGQGTSVTVSS VL: DIVMTQTPASLAVSLGQRATISCRASESVDSYGNSFMHWYQQKPGQPPKLLIYLASNLESGVPARFSGSGSRTDFTLTIDPVEAEDAAIYYCQQNNEDPLTFGGGTKLELK; no binding
gp34mtrp.03 (antibody, V domains shown, mouse IgG1 hybridoma mAb; leader in entries; also called anti gp34 clone mtrp.03) VH: EVQLEESGTVLARPGASVKMSCKASGYTFTSYWMHWVKQRPGQGLEWIGAIYPGNSDTGYNQKFKGKARLTAVTSTSTAYLELSSLTDEDSAVYFCTRLGYGDYWGQGTTLTVSS VL: DIVLTQTPSSMYASLGERVTITCKASQDINSYLTWFQQKPGKSPKTLIYRANRLVDGVPSRFSGSGSGQDYSLTINSLDYEDMGIYYCLQYDEFPPTFGGGTKLEIK; binds
gp34mtrp.04 (antibody, V domains shown, mouse IgG1 hybridoma mAb; leader in entries; also called anti gp34 clone mtrp.04) VH: EVKLVQSGTVLARPGASVKMSCKASGYTFTSYWMHWVKQRPGQGLEWIGAIYPGNSDTGYNQKFKGKARLTAVTSTSTAYLELSSLTDEDSAVYFCTRLGYGDYWGQGTTLTVSS VL: DIVMTQTPSSMYASLGERVTITCKASQDINSYLTWFQQKPGKSPKTLIYRANRLVDGVPSRFSGSGSGQDYSLTINSLDYEDMGIYYCLQYDEFPPTFGGGTKLEIK; binds
gp34mtrp.06 (antibody, V domains shown, mouse IgG1 hybridoma mAb; leader in entries; also called anti gp34 clone mtrp.06) VH: EVQLLQSGPEVKKPGETVKISCKASGYTFTNYGMSWLRQAPGKGLKWMGWINTYTGEPTYADDFKGRFAFSLETSASTAYFQINNLKNEDTTTYFCARRAFGGLDYWGQGTSVTVSS VL: DIVLTQSPLSLPVSLGDQASISCRSSQSIVYTNGNTYLEWYLQKPGQSPKLLIYKVSNRFSGVPDRFSGSGSGTDFTLKISRVEAEDLGVYYCFQGSHVPWTFGGGTKLEIK; binds
gp34mtrp.05 (antibody, V domains shown, mouse IgG1 hybridoma mAb; leader in entries; also called anti gp34 clone mtrp.05) VH: EVKLLQSGPEVKKPGETVKISCKASGYTFTNYGMSWLRQAPGKGLKWMGWINTYTGEPTYADDFKGRFAFSLETSASTAYFQINNLKDEDTTTYFCARRAFGGLDYWGQGTSVTVSS VL: DIVMTQSPLSLPVSLGDQASISCRSSQSIVYTNGNTYLEWYLQKPGQSPKLLIYKVSNRFSGVPDRFSGSGSGTDFTLKISRVEAEDLGVYYCFQGSHVPWTFGGGTKLEIK; binds

Now take the following binder into account.
query: # get_value(readout='binding result', item= gp34wt.07 (antibody, V domains shown, mouse IgG1 hybridoma mAb; leader in entries; also called anti gp34 clone wt.07) VH: QVKLEESGPELVKTGASVKISCKASGYSFTSYQIYWVKQSHGKSLEWIGHISCYNGATSYNQKFKDKATFTVDTSSSTAYMQFNSLTSEDSAVYFCARYDYAPDYYAMDYWGQGTSVTVSS VL: DIVLTQTPASLAVSLGQRATISCRASESVDSYGNSFMHWYQQKPGQPPKLLIYLASNLESGVPARFSGSGSRTDFTLTIDPVEAEDAAIYYCQQNNEDPLTFGGGTKLELK )
result: no binding
